test: Metabolic stability in mouse liver microsomes assessed as compound remaining after 45 mins by LC-MS/MS analysis; format: ADME; conditions: read-out: Stability
READOUT_TYPE: remaining at 0.75 h (%)
Provide only the numeric value, understood in %.

Query string: Assign remaining at 0.75 h to the following record: `CC(C)Oc1ccc(C(=O)CN2CCNCC2)cc1-n1c(CN2CCN(C(=O)COc3ccc(Cl)cc3)CC2)nc2ccccc2c1=O`
Result string: 76.9

Query string: Assign remaining at 0.75 h to the following record: `C=CCN1CCN(CC(=O)c2ccc(OC(C)C)c(-n3c(CN4CCN(C(=O)COc5ccc(Cl)cc5)CC4)nc4ccccc4c3=O)c2)CC1`
Result string: 0

Query string: Assign remaining at 0.75 h to the following record: `CC(C)Oc1ccc(CN2CCNCC2)cc1-n1c(CN2CCN(C(=O)COc3ccc(Cl)cc3)CC2)nc2ccccc2c1=O`
Result string: 59.4

Query string: Assign remaining at 0.75 h to the following record: `COc1ccc(CN2CCN(CC(=O)c3ccc(OC(C)C)c(-n4c(CN5CCN(C(=O)COc6ccc(Cl)cc6)CC5)nc5ccccc5c4=O)c3)CC2)cc1`
Result string: 0.2

Query string: Assign remaining at 0.75 h to the following record: `CC(C)Oc1ccc(C(=O)CF)cc1-n1c(CN2CCN(C(=O)COc3ccc(Cl)cc3)CC2)nc2ccccc2c1=O`
Result string: 0

Query string: Assign remaining at 0.75 h to the following record: `CC(C)Oc1ccc(C(=O)Cn2ccnc2)cc1-n1c(CN2CCN(C(=O)COc3ccc(Cl)cc3)CC2)nc2ccccc2c1=O`
Result string: 64.1

Query string: Assign remaining at 0.75 h to the following record: `CC(C)Oc1ccc(C(=O)CN2CCOCC2)cc1-n1c(CN2CCN(C(=O)COc3ccc(Cl)cc3)CC2)nc2ccccc2c1=O`
Result string: 21.2

Query string: Assign remaining at 0.75 h to the following record: `CC(=O)c1ccc(OC(C)C)c(-n2c(CN3CCN(C(=O)COc4ccc(Cl)cc4)CC3)nc3ccccc3c2=O)c1`
Result string: 0
